Tested on: Saccharomyces cerevisiae BY4741 SeMeCo community
experimental-protocol: z-score of prototroph abundance vs DMSO median; higher = larger share of this subpopulation than in DMSO controls
condition-label: 10 µM; 24 h; SM minimal medium; subpopulation (auxotrophy): Prototroph
Structures can show the parent of a compound that is named as a salt.
// classify(record): look up z-score of prototroph abundance in ranges bottom range = under -0.5, center range = from -0.5 up to -0.2, top range = -0.2 and over

{"compound": "Clc1ccc(COC(Cn2ccnc2)c2ccc(Cl)cc2Cl)c(Cl)c1 (stereo not drawn) [Miconazole]", "label-value": "bottom range"}
{"compound": "C=C[C@]1(C)C[C@@H](OC(=O)CSC(C)(C)CNC(=O)[C@H](N)C(C)C)[C@]2(C)[C@H](C)CC[C@]3(CCC(=O)[C@H]32)[C@@H](C)[C@@H]1O [Valnemulin HCl]", "label-value": "bottom range"}
{"compound": "N#Cc1ccc2[nH]cc(CCCCN3CCN(c4ccc5oc(C(N)=O)cc5c4)CC3)c2c1 [Vilazodone HCl]", "label-value": "center range"}
{"compound": "C[C@@H]1[C@H](O)[C@@H](C)/C=C/C=C/C=C/C=C/C=C/C=C/C=C/[C@H](O[C@@H]2O[C@H](C)[C@@H](O)[C@H](N)[C@@H]2O)C[C@@H]2O[C@](O)(C[C@@H](O)C[C@@H](O)[C@H](O)CC[C@@H](O)C[C@@H](O)CC(=O)O[C@H]1C)C[C@H](O)[C@H]2C(=O)O [Amphotericin B]", "label-value": "bottom range"}
{"compound": "COCCCOc1ccnc(C[S+]([O-])c2nc3ccccc3[nH]2)c1C (stereo not drawn) [Rebeprazole sodium]", "label-value": "center range"}
{"compound": "Cn1cc(C(=O)[C@@H]2CCc3[nH]cnc3C2)c2ccccc21 [Ramosetron Hydrochloride]", "label-value": "bottom range"}
{"compound": "Cc1ccc(-c2cc(C(F)(F)F)nn2-c2ccc(S(N)(=O)=O)cc2)cc1 [Celecoxib]", "label-value": "top range"}
{"compound": "CN(CCN1CCC(OC(=O)Nc2ccccc2-c2ccccc2)CC1)C(=O)c1ccc(CN2CCC(C(N)=O)CC2)cc1 [Revefenacin]", "label-value": "center range"}
{"compound": "Cc1cccc(C#Cc2ccccc2)n1", "label-value": "top range"}
{"compound": "CCCCCOc1ccc(-c2cc(-c3ccc(C(=O)N[C@H]4C[C@@H](O)[C@@H](O)NC(=O)[C@@H]5[C@@H](O)[C@@H](C)CN5C(=O)[C@H]([C@H](O)CC(N)=O)NC(=O)[C@H]([C@H](O)[C@@H](O)c5ccc(O)c(OS(=O)(=O)O)c5)NC(=O)[C@@H]5C[C@@H](O)CN5C(=O)[C@H]([C@@H](C)O)NC4=O)cc3)no2)cc1 [Micafungin Sodium]", "label-value": "bottom range"}
{"compound": "CC(=O)OCC(COC(C)=O)OC(C)=O [Triacetin]", "label-value": "top range"}
{"compound": "CCn1cc(C(=O)O)c(=O)c2ccc(C)nc21 [Nalidixic acid]", "label-value": "top range"}

====

In this section we review reported z-score of subpopulation abundance values for a set of compounds.
System: Saccharomyces cerevisiae BY4741 SeMeCo community
experimental-protocol: z-score of subpopulation abundance vs DMSO median, subpopulation auxotrophic for HUM; higher = larger share of this subpopulation than in DMSO controls
condition-label: 10 µM; 24 h; SM minimal medium; subpopulation (auxotrophy): HUM
Structures can show the parent of a compound that is named as a salt.

{"compound": "CCc1nn(CCCN2CCN(c3cccc(Cl)c3)CC2)c(=O)n1CCOc1ccccc1 [Nefazodone hydrochloride]", "z-score of subpopulation abundance": -0.23}
{"compound": "CC(C(=O)O)c1cccc(C(=O)c2ccccc2)c1 (centres undefined) [Ketoprofen]", "z-score of subpopulation abundance": -0.02}
{"compound": "Cc1onc(-c2c(F)cccc2Cl)c1C(=O)N[C@@H]1C(=O)N2[C@@H]1SC(C)(C)[C@@H]2C(=O)O [Flucloxacillin sodium]", "z-score of subpopulation abundance": 0.1}
{"compound": "NC12CC3CC(CC(C3)C1)C2 [Amantadine HCl]", "z-score of subpopulation abundance": -0.08}

====

Test system: Saccharomyces cerevisiae BY4741 SeMeCo community
experimental-protocol: z-score of subpopulation abundance vs DMSO median, subpopulation auxotrophic for M; higher = larger share of this subpopulation than in DMSO controls
condition-label: 10 µM; 24 h; SM minimal medium; subpopulation (auxotrophy): M
Structures can show the parent of a compound that is named as a salt.
In this section we review reported z-score of subpopulation abundance values for a set of compounds.

{"compound": "CC1(C)S[C@@H]2[C@H](NC(=O)[C@H](N)c3ccccc3)C(=O)N2[C@H]1C(=O)O [Ampicillin Trihydrate]", "z-score of subpopulation abundance": -0.37}
{"compound": "N[C@@H]1CONC1=O", "z-score of subpopulation abundance": -0.07}
{"compound": "O=C(CCCN1CC=C(n2c(=O)[nH]c3ccccc32)CC1)c1ccc(F)cc1", "z-score of subpopulation abundance": 0.67}
{"compound": "CC1=Nc2ccc(Cl)cc2S(=O)(=O)N1 [Diazoxide]", "z-score of subpopulation abundance": -0.76}
{"compound": "Oc1cccc(O)c1", "z-score of subpopulation abundance": -0.66}
{"compound": "C[C@]12CC[C@@H]3c4ccc(O)cc4C[C@@H](CCCCCCCCC[S+]([O-])CCCC(F)(F)C(F)(F)F)[C@H]3[C@@H]1CC[C@@H]2O (stereo partly specified)", "z-score of subpopulation abundance": 0.89}
{"compound": "Cc1cccc(C#Cc2ccccc2)n1", "z-score of subpopulation abundance": -0.25}
{"compound": "CCC[C@@H]1C[C@@H](C(=O)N[C@@H]([C@H]2O[C@H](SC)[C@H](O)[C@@H](O)[C@H]2O)[C@@H](C)O)N(C)C1 [Lincomycin HCl]", "z-score of subpopulation abundance": 0.32}
{"compound": "C#C[C@]1(OC(C)=O)CC[C@H]2[C@@H]3CCC4=C[C@@H](OC(C)=O)CC[C@@H]4[C@H]3CC[C@@]21C [Ethynodiol diacetate]", "z-score of subpopulation abundance": -0.73}
{"compound": "C#CCN[C@@H]1CCc2ccccc21 [Rasagiline Mesylate]", "z-score of subpopulation abundance": 0.65}
{"compound": "C[C@]12CC[C@@H]3c4ccc(O)cc4CC[C@H]3[C@@H]1CC[C@@H]2O", "z-score of subpopulation abundance": 0.4}
{"compound": "CCCCN1CCCCC1C(=O)Nc1c(C)cccc1C (stereo unspecified) [Bupivacaine HCl]", "z-score of subpopulation abundance": 0.05}
{"compound": "CC1(C)S[C@@H]2[C@H](NC(=O)[C@H](N)c3ccc(O)cc3)C(=O)N2[C@H]1C(=O)O [Amoxicillin Sodium]", "z-score of subpopulation abundance": 0.97}
{"compound": "O=c1n(CCCN2CCN(c3cccc(Cl)c3)CC2)nc2ccccn12 [Trazodone HCl]", "z-score of subpopulation abundance": 2.19}
{"compound": "COC(=O)C1=C(C)NC(C)=C(C(=O)OC(C)(C)CN(C)CCC(c2ccccc2)c2ccccc2)C1c1cccc([N+](=O)[O-])c1 (stereo unspecified)", "z-score of subpopulation abundance": 0.27}
{"compound": "COc1cccc2c1C(=O)c1c(O)c3c(c(O)c1C2=O)C[C@@](O)(C(C)=O)C[C@@H]3O[C@H]1C[C@H](N)[C@H](O)[C@H](C)O1 [Daunorubicin HCl]", "z-score of subpopulation abundance": -4.78}
{"compound": "CC[N+](C)(C)c1cccc(O)c1 [Edrophonium chloride]", "z-score of subpopulation abundance": 0.34}
{"compound": "Cc1[nH]cnc1CN1CCc2c(c3ccccc3n2C)C1=O [Alosetron Hydrochloride]", "z-score of subpopulation abundance": 0.38}
{"compound": "N[C@H]1CONC1=O", "z-score of subpopulation abundance": -3.06}
{"compound": "CC[C@H](C)[C@H](N)C1=N[C@H](C(=O)N[C@@H](CC(C)C)C(=O)N[C@H](CCC(=O)O)C(=O)N[C@H](C(=O)N[C@H]2CCCCNC(=O)[C@H](CC(N)=O)NC(=O)[C@@H](CC(=O)O)NC(=O)[C@H](Cc3cnc[nH]3)NC(=O)[C@@H](Cc3ccccc3)NC(=O)[C@H]([C@@H](C)CC)NC(=O)[C@@H](CCCN)NC2=O)[C@@H](C)CC)CS1", "z-score of subpopulation abundance": -0.01}
{"compound": "NC12CC3CC(CC(C3)C1)C2 [Amantadine HCl]", "z-score of subpopulation abundance": 0.52}
{"compound": "CCn1cc(C(=O)O)c(=O)c2cc(F)c(N3CCN(C)CC3)cc21 [Pefloxacin Mesylate Dihydrate]", "z-score of subpopulation abundance": 1.25}
{"compound": "CC1(C)S[C@@H]2[C@H](NC(=O)Cc3ccccc3)C(=O)N2[C@H]1C(=O)O [Benzylpenicillin potassium]", "z-score of subpopulation abundance": -0.08}
{"compound": "C[C@H](Nc1ncnc2nc[nH]c12)c1cc2cccc(Cl)c2c(=O)n1-c1ccccc1", "z-score of subpopulation abundance": -0.39}
{"compound": "O=C(O)C[C@H](O)C[C@H](O)/C=C/c1c(C2CC2)nc2ccccc2c1-c1ccc(F)cc1", "z-score of subpopulation abundance": 1}
{"compound": "O=C1Nc2ccccc2C1=O", "z-score of subpopulation abundance": -0.49}
{"compound": "Fc1ccc(C(c2ccc(F)cc2)N2CCN(C/C=C/c3ccccc3)CC2)cc1 [Flunarizine 2HCl]", "z-score of subpopulation abundance": -0.21}
{"compound": "O=c1cc(-c2ccc(O)c(O)c2)oc2cc(O)cc(O)c12", "z-score of subpopulation abundance": -0.18}
{"compound": "CO/N=C1\\C[C@]2(C[C@@H]3C[C@@H](C/C=C(\\C)C[C@@H](C)/C=C/C=C4\\CO[C@@H]5[C@H](O)C(C)=C[C@@H](C(=O)O3)[C@]45O)O2)O[C@H](/C(C)=C/C(C)C)[C@H]1C", "z-score of subpopulation abundance": -0.74}
{"compound": "Clc1ccc(COC(Cn2ccnc2)c2ccc(Cl)cc2Cl)cc1 (stereo unspecified) [Econazole nitrate]", "z-score of subpopulation abundance": -2.24}
{"compound": "CN1C2CCCC1CC(NC(=O)c1nn(C)c3ccccc13)C2 (stereo unspecified)", "z-score of subpopulation abundance": 1.71}
